Value source: patent US20250019387A1

# system_under_test: KRAS G12C and cRAF (Ras-binding domain) interaction (Homo sapiens (Human), UniProt P01116, C118S/C51S/C80L/G12C)
# Sequence (P01116 other isoform, or with tags, fused parts or gaps G12C/C51S/C80L/C118S): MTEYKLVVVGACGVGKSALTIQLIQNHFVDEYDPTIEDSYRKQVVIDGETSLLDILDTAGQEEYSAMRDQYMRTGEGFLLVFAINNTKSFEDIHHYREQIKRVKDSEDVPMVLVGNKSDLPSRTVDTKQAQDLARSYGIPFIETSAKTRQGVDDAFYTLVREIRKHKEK
# test_summary: Inhibition of KRAS G12C and cRAF binding (AlphaScreen)
# condition_info: additional exemplary compounds; KRAS G12C and cRAF binding; read-out: RAF1 RBD IC50
measured_endpoint: IC50

Worked examples follow.
compound	experimental_value
CN1CCC[C@H]1COc1nc(N(C)[C@@H]2CCN(C(=O)/C=C/CN3CC(F)C3)C2)c2cnc(-c3cccc4cccc(Cl)c34)c(F)c2n1	> 0.5 µM
CN(c1nc(OC[C@@]23CCCN2C[C@H](F)C3)nc2c(F)c(-c3cccc4ccc(F)c(Cl)c34)ncc12)[C@@H]1CCN(C(=O)/C=C/C2CNC2)C1	0.1 to 0.5 µM
C=CC(=O)COc1nc(OC[C@@H]2CCCN2C)nc2c1CCN(c1cccc3ccccc13)C2	> 0.5 µM

Quick one: give me IC50 for each item below, same order please.
1. C=CC(=O)N1CC[C@@H](N(C)c2nc(OC[C@]34CCCN3C[C@@H](F)C4)nc3c(F)c(-c4cccc5cccc(Cl)c45)ncc23)C1
2. C=CC(=O)N1CC[C@@H](N(C)c2nc(OC[C@@]34CCCN3C[C@H](F)C4)nc3c2CCN(c2cccc4ccc(F)c(Cl)c24)C3)C1
3. C=CC(=O)N1C[C@@H](F)[C@H](N(C)c2nc(OC[C@@]34CCCN3C[C@H](F)C4)nc3c(F)c(-c4cccc5cccc(Cl)c45)ncc23)C1
4. CN(c1nc(OCC23CCCN2CCC3)nc2c(F)c(-c3cccc4ccc(F)c(Cl)c34)ncc12)[C@@H]1CCN(C#N)C1

1. 0.1 to 0.5 µM
2. 0.01 to 0.1 µM
3. > 0.5 µM
4. 0.01 to 0.1 µM
